- target: A1PI (Homo sapiens, UniProt P01009)
- Construct: Human plasma is currently the only approved source of therapeutic AlPI
- Sequence (P01009 25-418): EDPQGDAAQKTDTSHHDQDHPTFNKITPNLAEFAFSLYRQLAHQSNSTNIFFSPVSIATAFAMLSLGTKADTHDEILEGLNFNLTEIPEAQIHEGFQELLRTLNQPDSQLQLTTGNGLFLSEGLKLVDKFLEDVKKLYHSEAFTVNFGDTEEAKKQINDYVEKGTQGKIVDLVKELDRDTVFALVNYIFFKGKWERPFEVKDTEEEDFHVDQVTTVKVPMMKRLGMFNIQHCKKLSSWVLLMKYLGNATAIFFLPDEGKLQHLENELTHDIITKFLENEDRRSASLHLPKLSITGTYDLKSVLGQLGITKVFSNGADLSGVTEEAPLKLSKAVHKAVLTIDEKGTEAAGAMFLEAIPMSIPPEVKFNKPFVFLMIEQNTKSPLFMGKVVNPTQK
- assayRemarks: Purification of A1PI from Effluent II+III on peptide column, A1PI mass balance
- Type: binding
- conditionNotes: Table 11; 1 ml Eff. II+III, 4° C.; * Below detection limit
Ends that are not written are not given here.
measuredProperty: Mass A1PI per Eluate Fraction, 2% Acetic Acid (mg)

# example entries with known answers
VIYLVR: VIWLVR with Trp at position 3 replaced by Tyr
0.57
V I V L V R: VIWLVR with Trp at position 3 replaced by Val (VIVLVR)
0.50
V I S L V R: VIWLVR with Trp at position 3 replaced by Ser (VISLVR)
0.26
VIWLVR
0.51
VIFLVR
0.57

[a] V I N L V R: VIWLVR with Trp at position 3 replaced by Asn (VINLVR)
[b] V I A L V R: VIWLVR with Trp at position 3 replaced by Ala (VIALVR)
Would you kindly point out which of a and b has the smaller Mass A1PI per Eluate Fraction, 2% Acetic Acid figure? Refer to your chosen item by its label in the answer.
b
(b: 0.35 mg, a: 0.53 mg)

###

- target: A1PI (Homo sapiens)
- Construct: Human plasma is currently the only approved source of therapeutic AlPI
- assayRemarks: A1PI binding on peptide-resin column, injection of 1 mg A1PI in equilibration buffer
- conditionNotes: Trp position mutations; 1 mg A1PI, 20° C.
Ends that are not written are not given here.
measuredProperty: % of Total A1PI Eluted by Fraction (Based on Absorbance at 280 nm), 1M NaCl (%)

# example entries with known answers
V I D L V R: VIWLVR with Trp at position 3 replaced by Asp (VIDLVR)
0
V I R L V R: VIWLVR with Trp at position 3 replaced by Arg (VIRLVR)
45
V I S L V R: VIWLVR with Trp at position 3 replaced by Ser (VISLVR)
75
VIYLVR: VIWLVR with Trp at position 3 replaced by Tyr
15
V I A L V R: VIWLVR with Trp at position 3 replaced by Ala (VIALVR)
36

[1] V I N L V R: VIWLVR with Trp at position 3 replaced by Asn (VINLVR)
[2] VIWLVR
Between 1 and 2 , whose measured % of Total A1PI Eluted by Fraction (Based on Absorbance at 280 nm), 1M NaCl reads higher? Refer to your chosen item by its label in the answer.
2
(2: 26%, 1: 7%)

###

- target: A1PI (Homo sapiens, UniProt P01009)
- Construct: Human plasma is currently the only approved source of therapeutic AlPI
- assayRemarks: Purification of A1PI from Effluent II+III on peptide column, A1PI mass balance
- Format: binding
- conditionNotes: A1PI; 1 ml Eff. II+III, 4° C.; * as in Tables 4, 5 (below detection limit)
- Description: Sequences 1-11 and 15 were assayed with Effluent II+III (Eff. II+III). Eff. II+III is a process intermediate in the Cohn plasma fractionation process. The feed stream contains 20% (by volume) ethanol, 20-25 mg/ml hSA and approximately 1 mg/ml AlPI. […]
Ends that are not written are not given here.
measuredProperty: Mass Protein per Eluate Fraction, 2% Acetic Acid (mg)

[A] QYHFWY
[B] LIVHRW
[C] RYRIFI
[D] RLWRYG
Sort the list above on Mass Protein per Eluate Fraction, 2% Acetic Acid in ascending fashion. Write the labels, ordered according to the request.
D, B, C, A
(D: 0.13 mg, B: 0.30 mg, C: 0.50 mg, A: 0.80 mg)

###

- target: A1PI (Homo sapiens)
- Construct: Human plasma is currently the only approved source of therapeutic AlPI
- assayRemarks: Purification of A1PI from Effluent II+III on peptide column, A1PI mass balance
- Assay type: binding
- conditionNotes: A1PI; 1 ml Eff. II+III, 4° C.
Ends that are not written are not given here.
measuredProperty: Percent Eluted by Fraction, 2% Acetic Acid (%)

# example entries with known answers
RYRIFI
66
IIWLYK
79
LIVHRW
25
ARWYIH
75
RFIYYT
80
QYHFWY
75

[1] RLWRYG
[2] PYWIVR
[3] RAFWYI
[4] VIWLVR
List by increasing Percent Eluted by Fraction, 2% Acetic Acid. Write the labels, ordered according to the request.
1, 2, 4, 3

###

- target: A1PI (Homo sapiens)
- Construct: Human plasma is currently the only approved source of therapeutic AlPI
- assayRemarks: A1PI yield from dialyzed (aqueous) Effluent II+III
- Assay type: binding
- conditionNotes: A1PI; 1 ml dialyzed Eff. II+III, 4° C.
Ends that are not written are not given here.
measuredProperty: Percent Eluted by Fraction, 1M NaCl (%)

# example entries with known answers
VIFLVR
13
RYRIFI
24
VIWLVR
24
IIWLYK
9

[a] ARWYIH
[b] VIYLVR: VIWLVR with Trp at position 3 replaced by Tyr
Would you kindly point out which of a and b has the smaller Percent Eluted by Fraction, 1M NaCl figure? Refer to your chosen item by its label in the answer.
b
(b: 16%, a: 30%)

###

- target: A1PI (Homo sapiens, UniProt P01009)
- Construct: Human plasma is currently the only approved source of therapeutic AlPI
- assayRemarks: A1PI yield from dialyzed (aqueous) Effluent II+III
- Type: binding
- conditionNotes: 1 ml dialyzed Eff. II+III (ethanol removed), 4° C.
Ends that are not written are not given here.
measuredProperty: Mass A1PI per Eluate Fraction, 2% Acetic Acid (mg)

# example entries with known answers
RYRIFI
0.25
VIYLVR: VIWLVR with Trp at position 3 replaced by Tyr
0.16
ARWYIH
0.20
IIWLYK
0.38

[P] VIFLVR
[Q] VIWLVR
Between P and Q , whose measured Mass A1PI per Eluate Fraction, 2% Acetic Acid reads higher? Refer to your chosen item by its label in the answer.
P

###

- target: A1PI (Homo sapiens, UniProt P01009)
- Construct: Human plasma is currently the only approved source of therapeutic AlPI
- assayRemarks: Purification of A1PI from Effluent II+III on peptide column, A1PI mass balance
- Format: binding
- conditionNotes: Table 13; 1 ml Eff. II+III, 4° C.; * Below detection limit
Ends that are not written are not given here.
measuredProperty: Mass A1PI per Eluate Fraction, Flowthrough (mg)

# example entries with known answers
S I F L V R: point mutation of VIFLVR, position 1 (SIFLVR)
0.61
VIFLVR
0.32
R I F L V R: point mutation of VIFLVR, position 1 (RIFLVR)
0.24
A I F L V R: point mutation of VIFLVR, position 1 (AIFLVR)
0.33

[A] H I F L V R: point mutation of VIFLVR, position 1 (HIFLVR)
[B] K I F L V R: point mutation of VIFLVR, position 1 (KIFLVR)
Would you kindly point out which of A and B has the smaller Mass A1PI per Eluate Fraction, Flowthrough figure? Refer to your chosen item by its label in the answer.
A
(A: 0.16 mg, B: 0.32 mg)

###

- target: A1PI (Homo sapiens, UniProt P01009)
- Construct: Human plasma is currently the only approved source of therapeutic AlPI
- assayRemarks: A1PI binding on peptide-resin column, injection of 1 mg A1PI in equilibration buffer
- conditionNotes: 1 mg A1PI in equilibration buffer, 4° C.
Ends that are not written are not given here.
measuredProperty: Percent A1PI Eluted by Fraction Based on Absorbance at 280 nm, 2% Acetic Acid (%)

# example entries with known answers
RAFWYI
45
WIKWTK
0
ARWYIH
45
RRKYLW
8
WSSKRY
9

[P] QYHFWY
[Q] IIWLYK
Between P and Q , whose measured Percent A1PI Eluted by Fraction Based on Absorbance at 280 nm, 2% Acetic Acid reads higher? Refer to your chosen item by its label in the answer.
Q

###

- target: A1PI (Homo sapiens)
- Construct: Human plasma is currently the only approved source of therapeutic AlPI
- assayRemarks: A1PI binding on peptide-resin column, injection of 1 mg A1PI in equilibration buffer
- conditionNotes: 1 mg A1PI in equilibration buffer, 20° C.
Ends that are not written are not given here.
measuredProperty: Percent A1PI Eluted by Fraction, 1M NaCl (%)

# example entries with known answers
IIe Lys Arg Tyr Tyr Leu (IKRYYL)
92
RAFWYI
72

[A] ARWYIH
[B] VIWLVR
Would you kindly point out which of A and B has the smaller Percent A1PI Eluted by Fraction, 1M NaCl figure? Refer to your chosen item by its label in the answer.
B
(B: 26%, A: 84%)

###

- target: A1PI (Homo sapiens, UniProt P01009)
- Construct: Human plasma is currently the only approved source of therapeutic AlPI
- assayRemarks: A1PI purification from 5 mg hSA + 1 mg A1PI on peptide column, A1PI mass balance
- Type: binding
- conditionNotes: A1PI; 5 mg hSA + 1 mg A1PI, 20° C.; * Below detection limit
Ends that are not written are not given here.
measuredProperty: Mass Protein per Eluate Fraction, 3M NaCl (mg)

# example entries with known answers
PYWIVR
0.02
IWRKYS
0.00

[I] VIWLVR
[II] RLWRYG
[III] WKLWRW
Order field: Mass Protein per Eluate Fraction, 3M NaCl | Direction: descending (largest first) Write the labels, ordered according to the request.
III, I, II
(III: 0.05 mg, I: 0.02 mg, II: 0.00 mg)
